activation listing for selected compounds.
# system.tested: 5-hydroxytryptamine receptor 5A (Homo sapiens)
# procedure.summary: activation of human 5-HT5A receptor – cell-based, luminescence, full-deck HTS, counter-screen for OPRM1-OPRD1 heterodimer agonist project, primary screen (AID 504692);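 note: 0% = cells with vehicle only and 100% = reference agonist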
# conditions: HTR5A agonist assay, at 9.3 µM, hits give high values
Among all 340,000 compounds or so, about 2,000 (0.59%) were called active. The list comes from a sample in which actives are over-represented; it also holds close analogues and randomly drawn compounds.
Please respond with the number in % and leave the unit unwritten.

{"columns": ["compound", "activation, %"],
 "data": [
  ["COCCC(=O)N1CCC(Oc2ccc(C(=O)NCc3ccon3)cc2)CC1", 1.64],
  ["CC1(C)Cc2cccc(OCC(=O)NCc3ccccc3)c2O1", 0.71],
  ["Cc1cnc(C(=O)N2CCCC(N3CCN(c4ccccc4F)CC3)C2)cn1 (stereo unspecified)", 5.27]
]}

The measured activation that CN(Cc1cccnc1)C(=O)c1cc(COc2ccc3ncccc3c2)on1 showed for 5-hydroxytryptamine receptor 5A (Homo sapiens) is 11.7

The measured activation that Cc1ccc(NC(=S)NC(NC(=O)Cc2cccc3ccccc23)C(Cl)(Cl)Cl)cc1 (stereo unspecified) showed for 5-hydroxytryptamine receptor 5A (Homo sapiens) is 26.7

----------
# system.tested: 5-hydroxytryptamine receptor 5A (Homo sapiens)
# procedure.summary: activation of human 5-HT5A receptor – cell-based, luminescence, full-deck HTS, counter-screen for OPRM1-OPRD1 heterodimer agonist project, primary screen (AID 504692);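 note: 0% = cells with vehicle only and 100% = reference agonist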
# conditions: HTR5A agonist assay, at 9.3 µM, hits give high values
Out of some 340,000 compounds screened, about 2,000 (0.59%) were called active. Only a selection was taken, and actives are over-represented in it overall.
measured.metric: activation (%)
Please respond with the number in % and leave the unit unwritten.

Solved entries:
{"columns": ["molecule", "measured.metric", "measured.result"],
 "data": [
  ["O=C(c1cccnc1)N(Cc1ccccc1)C(=O)c1cccnc1", "activation", 5.83],
  ["O=C1COc2ccc(C(=O)COC(=O)C3CC(O)CN3S(=O)(=O)c3ccc(Cl)cc3)cc2N1 (stereo unspecified)", "activation", 2.08],
  ["CC(C)(C)OC(=O)N1CCC(NC(=O)c2[nH]cnc2C(=O)N[C@@H](Cc2ccccc2)C(=O)OCc2ccccc2)CC1", "activation", 38]
]}

Please fill in: activation reported for CCOC(=O)C1=C(O)/C(=C/c2ccc(OCC(=O)Nc3ccc(C)cc3)cc2)N=C1C = 23.3

Please fill in: activation reported for O=C1CCCN2N=C(SCC(=O)Nc3ccc(Br)cc3)SC2=N1 = -3.71

Please fill in: activation reported for O=C(c1cccnc1)N(c1cc2sc(=O)oc2c2ccccc12)S(=O)(=O)c1ccccc1 = 16.1

Please fill in: activation reported for CCN(CC)C(=O)c1nc[nH]c1C(=O)N(C)Cc1ccccc1 = -1.14

Please fill in: activation reported for CC(C)Oc1ccc(C(=O)NCC(=O)Nc2ccc3c(c2)CCC3)cc1 = -1.62

Please fill in: activation reported for Cc1ccc2c(c1)C(c1ccccc1)N(C(=O)c1ccc(F)cc1)CC(=O)N2 (stereo unspecified) = -1.42

Please fill in: activation reported for O=C(N[C@@H](Cc1ccccc1)C(=O)OCc1ccccc1)c1nc[nH]c1C(=O)NC1CCNCC1 = -1.94

Please fill in: activation reported for COc1cccc(OCC(O)CNC(=O)c2oc3c(C)c(C)ccc3c2C)c1 (stereo unspecified) = 0.14

Ref: PubChem BioAssay AID504692
